test: Plasma pharmacokinetics after oral multi-dose anatabine polacrilex; format: in vivo, Sprague-Dawley rats; conditions: male, Sprague-Dawley, rat, plasma, oral, 0.2 mg/kg, Anatabine Concentration in rat plasma, 60 min, individual animals 1A-1D

compound | readout.units | concentration at 60 min
C1=CCC(c2cccnc2)NC1 (racemic) [Anatabine, 1,2,3,6-tetrahydro-[2,3′]bipyridinyl] | ng/mL | 32

###

Test: Plasma toxicokinetics after single i.v. bolus
Assay type: in vivo, Sprague-Dawley rats
Details: female, Sprague-Dawley, rat, plasma, intravenous, 0.75 mg/kg, Anatabine 0.75 mg/kg; female; 0.5 hr (2nd 0.5 hr line); read-out: Avg. Conc. rat plasma
Protocol: Six rats (3 males and 3 females) were dosed per dose group. […] Plasma and brain homogenates were stored at −80° C. until analysis. […] Four aliquots of each dose level formulation were collected and stored at −80° C. […] The physical signs of each animal were monitored following administration of the test compound. […] Sample preparation. […] The amount of the test agent in the supernatant was determined by liquid chromatography tandem mass spectrometry (LC/MS/MS). […]

compound | concentration at 0.5 h [ng/mL]
C1=CCC(c2cccnc2)NC1 (racemic) [Anatabine, 1,2,3,6-tetrahydro-[2,3′]bipyridinyl] | 354

###

test: Plasma pharmacokinetics after oral multi-dose anatabine polacrilex; assay type: in vivo, Sprague-Dawley rats; settings: female, Sprague-Dawley, rat, plasma, po, 0.6 mg/kg, female rats, after dose 1, mean; read-out: Tmax(1)

compound | Tmax / min
C1=CCC(c2cccnc2)NC1 (racemic) [Anatabine, 1,2,3,6-tetrahydro-[2,3′]bipyridinyl] | 37.8

###

test: Plasma pharmacokinetics after oral multi-dose anatabine polacrilex; type: in vivo, Sprague-Dawley rats; details: female, Sprague-Dawley, rat, plasma, oral, 0.2 mg/kg, Anatabine Concentration in rat plasma, 60 min, individual animals 2A-2D
property.measured: concentration at 60 min (ng/mL)

molecule | assay.result
C1=CCC(c2cccnc2)NC1 (racemic) [Anatabine, 1,2,3,6-tetrahydro-[2,3′]bipyridinyl] | 29

###

assay: Concentration in brain extracts after single i.v. bolus; format: in vivo, Sprague-Dawley rats; conditions: both sexes, Sprague-Dawley, rat, brain, intravenous, 0.75 mg/kg, Concentration of anatabine in rat brain extract, Anatabine 0.75 mg/kg, Rat Brain, 6 hr, individual rats
property.measured: concentration at 6 h

compound | property.measured | assay.result
C1=CCC(c2cccnc2)NC1 (racemic) [Anatabine, 1,2,3,6-tetrahydro-[2,3′]bipyridinyl] | concentration at 6 h | 16 ng/mL

###

test: Plasma toxicokinetics after single i.v. bolus; assay type: in vivo, Sprague-Dawley rats; conditions: female, Sprague-Dawley, rat, plasma, intravenous, 0.1 mg/kg, Anatabine 0.1 mg/kg; female; 0.5 hr (1st 0.5 hr line); read-out: Avg. Conc. rat plasma

molecule | concentration at 0.5 h
C1=CCC(c2cccnc2)NC1 (racemic) [Anatabine, 1,2,3,6-tetrahydro-[2,3′]bipyridinyl] | 13 ng/mL

###

experiment: Plasma toxicokinetics after single i.v. bolus; type: in vivo, Sprague-Dawley rats; details: both sexes, Sprague-Dawley, rat, plasma, intravenous, 1 mg/kg, Anatabine 1.0 mg/kg; male and female; 1 hr; read-out: Avg. Conc. rat plasma, combined male and female

molecule | concentration at 1 h, ng/mL
C1=CCC(c2cccnc2)NC1 (racemic) [Anatabine, 1,2,3,6-tetrahydro-[2,3′]bipyridinyl] | 231

###

assay: Plasma toxicokinetics after single i.v. bolus; assay type: in vivo, Sprague-Dawley rats; conditions: Sprague-Dawley, rat, plasma, intravenous, 0.75 mg/kg, Concentration of anatabine in rat plasma, Anatabine 0.75 mg/kg, rat plasma, 1 hr, rats of group 3

compound | concentration at 1 h, ng/mL
C1=CCC(c2cccnc2)NC1 (racemic) [Anatabine, 1,2,3,6-tetrahydro-[2,3′]bipyridinyl] | 153
